Task for the reader: assign each of the following binders its reported Stability Index.
- system-name: T1, recombinant human Tau monomer, 2N4R isoform (amino acids 2-441) (human, UniProt P10636-8 2-441)
- T1 construct: range 2-441; N-terminal His-tag removed with TEV protease; also called monomeric Tau
- T1 sequence (P10636 other isoform, or with tags, fused parts or gaps limits assumed): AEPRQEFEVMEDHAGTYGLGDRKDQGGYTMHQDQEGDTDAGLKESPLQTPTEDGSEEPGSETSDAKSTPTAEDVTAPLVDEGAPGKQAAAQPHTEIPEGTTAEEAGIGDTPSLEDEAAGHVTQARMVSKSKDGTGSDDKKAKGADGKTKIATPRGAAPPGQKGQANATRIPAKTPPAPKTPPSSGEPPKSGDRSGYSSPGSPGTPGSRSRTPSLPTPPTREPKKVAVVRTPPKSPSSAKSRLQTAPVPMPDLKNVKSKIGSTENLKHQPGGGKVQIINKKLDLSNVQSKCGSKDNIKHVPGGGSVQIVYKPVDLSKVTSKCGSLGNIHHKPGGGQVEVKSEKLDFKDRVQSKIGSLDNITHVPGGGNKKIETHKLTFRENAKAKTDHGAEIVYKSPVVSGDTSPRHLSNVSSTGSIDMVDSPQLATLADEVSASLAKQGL
- method-notes: SPR; Normalized Rmax post-stress (2 weeks 40 C) / pre-stress
Note: unit % is implicit; provide only the numeric part.

Form: binder = hu37D3.v28.B1 (antibody, V domains shown) VH: EVQLVESGGGLVQPGGSLRLSCAASGLIFRSYGMSWVRQAPGKGLEWVATINSGGTYTYYPDSVKGRFTISRDNSKNTLYLQMNSLRAEDTAVYYCANSYSGAMDYWGQGTLVTVSS VL: DDVLTQTPLSLPVTPGQPASISCRSSQSIVHSIGNTFFEWYLQKPGQSPQLLIYKVSNRFSGVPDRFSGSGSGTDFTLKISRVEAEDVGVYYCFQGSLVPWTFGQGTKVEIK ; Stability Index = 101

Form: binder = hu37D3.v28.E3 (antibody, V domains shown) VH: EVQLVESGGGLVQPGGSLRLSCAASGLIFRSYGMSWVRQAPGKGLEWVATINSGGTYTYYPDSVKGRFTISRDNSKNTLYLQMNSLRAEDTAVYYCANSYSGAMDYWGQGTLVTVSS VL: DDVLTQTPLSLPVTPGQPASISCRSSQSIVDSDGNTYFEWYLQKPGQSPQLLIYKVSNRFSGVPDRFSGSGSGTDFTLKISRVEAEDVGVYYCFQGSLVPWTFGQGTKVEIK ; Stability Index = 364

Form: binder = hu37D3.v29.5 (antibody, V domains shown) VH: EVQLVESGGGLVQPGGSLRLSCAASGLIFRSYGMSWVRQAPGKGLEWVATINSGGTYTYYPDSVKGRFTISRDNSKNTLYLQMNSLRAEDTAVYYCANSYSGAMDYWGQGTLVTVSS VL: EDVLTQTPLSLPVTPGQPASISCRSSQSIVHSNGHTYFEWYLQKPGQSPQLLIYKVSNRFSGVPDRFSGSGSGTDFTLKISRVEAEDVGVYYCFQGSLVPWTFGQGTKVEIK ; Stability Index = 64

Form: binder = hu37D3.v28 (antibody, V domains shown) VH: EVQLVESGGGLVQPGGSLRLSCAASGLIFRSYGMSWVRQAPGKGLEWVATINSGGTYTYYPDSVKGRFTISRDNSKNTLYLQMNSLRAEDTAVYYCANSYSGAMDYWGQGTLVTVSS VL: DDVLTQTPLSLPVTPGQPASISCRSSQSIVHSNGNTYFEWYLQKPGQSPQLLIYKVSNRFSGVPDRFSGSGSGTDFTLKISRVEAEDVGVYYCFQGSLVPWTFGQGTKVEIK ; Stability Index = 78

Form: binder = hu37D3.v28.A28 (antibody, V domains shown) VH: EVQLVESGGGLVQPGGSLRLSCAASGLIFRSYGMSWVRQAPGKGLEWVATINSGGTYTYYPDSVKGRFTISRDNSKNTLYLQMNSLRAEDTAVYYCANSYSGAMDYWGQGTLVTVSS VL: DVVMTQTPLSLPVTPGQPASISCRSSQSIVHSNGNTYLEWYLQKPGQSPQLLIYKVSNRFSGVPDRFSGSGSGTDFTLKISRVEAEDVGVYYCFQGSLVPWTFGQGTKVEIK ; Stability Index = 89

Form: binder = hu37D3.v29.13 (antibody, V domains shown) VH: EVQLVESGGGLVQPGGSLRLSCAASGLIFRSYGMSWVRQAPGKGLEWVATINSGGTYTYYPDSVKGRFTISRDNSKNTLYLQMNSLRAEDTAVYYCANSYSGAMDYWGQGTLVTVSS VL: EDVLTQTPLSLPVTPGQPASISCRSSQSIVHSNAKTYFEWYLQKPGQSPQLLIYKVSNRFSGVPDRFSGSGSGTDFTLKISRVEAEDVGVYYCFQGSLVPWTFGQGTKVEIK ; Stability Index = 79

Form: binder = hu37D3.v28.B2 (antibody, V domains shown) VH: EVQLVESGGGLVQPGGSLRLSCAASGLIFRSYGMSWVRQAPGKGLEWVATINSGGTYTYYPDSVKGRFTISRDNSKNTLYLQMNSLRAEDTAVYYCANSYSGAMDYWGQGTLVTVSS VL: DDVLTQTPLSLPVTPGQPASISCRSSQSIVHSMGNTFFEWYLQKPGQSPQLLIYKVSNRFSGVPDRFSGSGSGTDFTLKISRVEAEDVGVYYCFQGSLVPWTFGQGTKVEIK ; Stability Index = 83

Form: binder = hu37D3.v28.A16 (antibody, V domains shown) VH: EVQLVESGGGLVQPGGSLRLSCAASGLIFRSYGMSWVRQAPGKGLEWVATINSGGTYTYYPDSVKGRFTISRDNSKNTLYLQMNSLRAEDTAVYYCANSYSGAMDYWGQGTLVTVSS VL: DVVLTQTPLSLPVTPGQPASISCRSSQSIVHSNGNTYFEWYLQKPGQSPQLLIYKVSNRFSGVPDRFSGSGSGTDFTLKISRVEAEDVGVYYCFQGSLVPWTFGQGTKVEIK ; Stability Index = 89

Form: binder = hu37D3.v28.A14 (antibody, V domains shown) VH: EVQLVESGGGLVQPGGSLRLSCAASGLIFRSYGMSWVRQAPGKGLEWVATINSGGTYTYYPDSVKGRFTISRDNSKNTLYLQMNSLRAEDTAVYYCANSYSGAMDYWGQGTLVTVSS VL: DDVMTQTPLSLPVTPGQPASISCRSSQSIVHSNGNTYLEWYLQKPGQSPQLLIYKVSNRFSGVPDRFSGSGSGTDFTLKISRVEAEDVGVYYCFQGSHVPWTFGQGTKVEIK ; Stability Index = 70

Form: binder = hu37D3.v28.A26 (antibody, V domains shown) VH: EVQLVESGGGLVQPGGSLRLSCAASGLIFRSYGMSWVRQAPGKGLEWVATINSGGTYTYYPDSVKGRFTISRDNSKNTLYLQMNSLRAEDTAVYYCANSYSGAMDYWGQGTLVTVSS VL: DVVMTQTPLSLPVTPGQPASISCRSSQSIVHSNGNTYFEWYLQKPGQSPQLLIYKVSNRFSGVPDRFSGSGSGTDFTLKISRVEAEDVGVYYCFQGSHVPWTFGQGTKVEIK ; Stability Index = 78

Value source: patent US20190367592A1
